// provenance: paper PMC10320842

Measured Kd accompanies every entry in the list below.
Target: T1, yRev1 305-746 (Saccharomyces cerevisiae, UniProt P12689 305-746)
T1 sequence: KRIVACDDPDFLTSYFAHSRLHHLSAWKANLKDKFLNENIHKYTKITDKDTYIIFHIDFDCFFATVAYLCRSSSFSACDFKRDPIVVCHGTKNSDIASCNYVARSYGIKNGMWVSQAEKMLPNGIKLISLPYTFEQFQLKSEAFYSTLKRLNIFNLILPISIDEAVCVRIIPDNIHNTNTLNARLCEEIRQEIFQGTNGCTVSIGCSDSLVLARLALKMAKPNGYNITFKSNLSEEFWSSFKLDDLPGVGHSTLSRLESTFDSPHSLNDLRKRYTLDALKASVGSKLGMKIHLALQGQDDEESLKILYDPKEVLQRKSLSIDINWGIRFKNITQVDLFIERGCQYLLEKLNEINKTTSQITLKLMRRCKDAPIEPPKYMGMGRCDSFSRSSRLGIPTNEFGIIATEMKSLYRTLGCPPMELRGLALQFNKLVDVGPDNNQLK
Assay: fluorescence polarization
Measured Attribute: Kd (nM)

AGCGTGCGTAGCGTGCGTTATGAGATGAT (ssDNA) [ss non-G4 Myc]: 340
TGCTTGCTGTGCTTGCTATGAGATGAT (ssDNA) [ss non-G4 TBA]: 450
GTGAGATGTTGACCATGGGTGCGTCTGCGGCTGGCTCGAGGC (ssDNA) [ss-42-mer non-G4]: 340
p/t non-G4 TBA (mixed) DNA 1: TGCTTGCTGTGCTTGCTATGAGATGAT DNA 2: ATCATCTCATA: 450
23/42-mer non-G4 (mixed) DNA 1: GTGAGATGTTGACCATGGGTGCGTCTGCGGCTGGCTCGAGGC DNA 2: TTTGCCTCGAGCCAGCCGCAGACGCA: 460
p/t non-G4 Myc (mixed) DNA 1: AGCGTGCGTAGCGTGCGTTATGAGATGAT DNA 2: ATCATCTCATA: 480
TGAGGGTGGGTAGGGTGGGTGCGTCTGCGGCTGGCTCGAGGC (structured_DNA) [ss-42-mer Myc G4]: 230
TTGCGTTAGCGTTAGCGTTAGCGATATGAGATGAT (ssDNA) [ss non-G4 Telo-4]: 310
